meta.source: the supplement of paper PMC11208160

Assay: recombinant barcode read abundance after kanamycin selection (control-corrected) (log10(CPM+1)); higher = more efficient recombination; sequences stand for … in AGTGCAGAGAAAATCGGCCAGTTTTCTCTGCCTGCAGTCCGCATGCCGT…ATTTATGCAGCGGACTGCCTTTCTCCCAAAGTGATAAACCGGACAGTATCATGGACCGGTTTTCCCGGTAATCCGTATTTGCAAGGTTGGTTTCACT; site = the 11-nt target
Label Condition met when recombinant barcode read abundance (log10) >= 0.1; otherwise Condition not met.

Does the sequence TAGAGGGCTTGGGTTCTAACCTGTTGCGGAC [TAGAGGGCTCC_LTGcore_CT_RTGcore_GT] (site TAGAGGGCTCC) (LTG core: CT, RTG core: GT) have recorded recombinant barcode read abundance (log10) that is 0.1 or more?
Condition met

Determine whether this sequence has recombinant barcode read abundance (log10) no lower than 0.1: GGACACCACTGGGTTCTAACCTGTTGCCTAG [GGACACCCTAG_LTGcore_AC_RTGcore_CT] (site GGACACCCTAG) (LTG core: AC, RTG core: CT)
Condition not met

hey, is recombinant barcode read abundance (log10) for this one >= 0.1? TTATAAACTTGGGTTCTAACCTGTTGCCTGA [TTATAAACTAG_LTGcore_CT_RTGcore_TC] (site TTATAAACTAG) (LTG core: CT, RTG core: TC)
Condition met

Is it the case that AGGCGGGGTTGGGTTCTAACCTGTTGCGGAC [AGGCGGGCTCC_LTGcore_GT_RTGcore_GT] (site AGGCGGGCTCC) (LTG core: GT, RTG core: GT) has recombinant barcode read abundance (log10) reaching or exceeding 0.1?
Condition not met

Check this sequence for recombinant barcode read abundance (log10) at or above 0.1: GCGGGACCTTGGGTTCTAACCTGTTGCCTCA [GCGGGACCTAG_LTGcore_CT_RTGcore_TG] (site GCGGGACCTAG) (LTG core: CT, RTG core: TG)
Condition met

Does the reported recombinant barcode read abundance (log10) for GAGTCCACTTGGGTTCTAACCTGTTGCGTTT [GAGTCCACTAC_LTGcore_CT_RTGcore_AA] (site GAGTCCACTAC) (LTG core: CT, RTG core: AA) fall at or above the 0.1 mark?
Condition met

hey, is recombinant barcode read abundance (log10) for this one >= 0.1? AAACACAAGTGGGTTCTAACCTGTTGCCTCT [AAACACACTAG_LTGcore_AG_RTGcore_AG] (site AAACACACTAG) (LTG core: AG, RTG core: AG)
Condition met

Please check the record TCGCGACCTTGGGTTCTAACCTGTTGCCGGG [TCGCGACCTCG_LTGcore_CT_RTGcore_CC] (site TCGCGACCTCG) (LTG core: CT, RTG core: CC) and state if its recombinant barcode read abundance (log10) is at or above 0.1.
Condition met

Is reported recombinant barcode read abundance (log10) greater than or equal to 0.1 here: TAAGAATGTTGGGTTCTAACCTGTTGCCTAC [TAAGAATCTAG_LTGcore_GT_RTGcore_GT] (site TAAGAATCTAG) (LTG core: GT, RTG core: GT)
Condition met

Check the entry TGATACCCTTGGGTTCTAACCTGTTGCGTGG [TGATACCCTAC_LTGcore_CT_RTGcore_CC] (site TGATACCCTAC) (LTG core: CT, RTG core: CC) : does recombinant barcode read abundance (log10) equal or exceed 0.1?
Condition met

Please tell me: is the sequence GGGCGGATGTGGGTTCTAACCTGTTGCGGCA [GGGCGGACTCC_LTGcore_TG_RTGcore_TG] (site GGGCGGACTCC) (LTG core: TG, RTG core: TG) at or over 0.1 in terms of recombinant barcode read abundance (log10)?
Condition met

Confirm if recombinant barcode read abundance (log10) reported for the sequence ATGTCCCCTTGGGTTCTAACCTGTTGCTCTA [ATGTCCCCTGA_LTGcore_CT_RTGcore_TA] (site ATGTCCCCTGA) (LTG core: CT, RTG core: TA) is 0.1 or above.
Condition met

hey, is recombinant barcode read abundance (log10) for this one >= 0.1? GTCGCCCTGTGGGTTCTAACCTGTTGCTAAG [GTCGCCCCTTA_LTGcore_TG_RTGcore_CT] (site GTCGCCCCTTA) (LTG core: TG, RTG core: CT)
Condition met

Check if recombinant barcode read abundance (log10) >= 0.1 (inclusive). Item: GGTGCCCCTTGGGTTCTAACCTGTTGCCGAG [GGTGCCCCTCG_LTGcore_CT_RTGcore_CT] (site GGTGCCCCTCG) (LTG core: CT, RTG core: CT)
Condition met

Has AGGCGGGAGTGGGTTCTAACCTGTTGCGGAG [AGGCGGGCTCC_LTGcore_AG_RTGcore_CT] (site AGGCGGGCTCC) (LTG core: AG, RTG core: CT) a recorded recombinant barcode read abundance (log10) greater than or equal to 0.1?
Condition met

Does TTATAAACCTGGGTTCTAACCTGTTGCCTAG [TTATAAACTAG_LTGcore_CC_RTGcore_CT] (site TTATAAACTAG) (LTG core: CC, RTG core: CT) have a reported recombinant barcode read abundance (log10) of at least 0.1?
Condition met

recombinant barcode read abundance (log10) >= 0.1 for GGACACCCCTGGGTTCTAACCTGTTGCCTGG [GGACACCCTAG_LTGcore_CC_RTGcore_CC] (site GGACACCCTAG) (LTG core: CC, RTG core: CC) ?
Condition met

Could you tell me if the measured recombinant barcode read abundance (log10) of AAACAGTGATGGGTTCTAACCTGTTGCCTTC [AAACAGTCTAG_LTGcore_GA_RTGcore_GA] (site AAACAGTCTAG) (LTG core: GA, RTG core: GA) reaches 0.1 or more?
Condition not met

Could you tell me if the measured recombinant barcode read abundance (log10) of ATGCTTTGTTGGGTTCTAACCTGTTGCCTAC [ATGCTTTCTAG_LTGcore_GT_RTGcore_GT] (site ATGCTTTCTAG) (LTG core: GT, RTG core: GT) reaches 0.1 or more?
Condition met

Confirm if recombinant barcode read abundance (log10) reported for the sequence TTATAAAGGTGGGTTCTAACCTGTTGCCTAG [TTATAAACTAG_LTGcore_GG_RTGcore_CT] (site TTATAAACTAG) (LTG core: GG, RTG core: CT) is 0.1 or above.
Condition not met

Is recombinant barcode read abundance (log10) for GAGGCCTGCTGGGTTCTAACCTGTTGCCAGC [GAGGCCTCTTG_LTGcore_GC_RTGcore_GC] (site GAGGCCTCTTG) (LTG core: GC, RTG core: GC) at or above 0.1?
Condition met

* * *

Experiment: recombinant barcode read abundance after kanamycin selection (control-corrected) (log10(CPM+1)); higher = more efficient recombination; sequences stand for … in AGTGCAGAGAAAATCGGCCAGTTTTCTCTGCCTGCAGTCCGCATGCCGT…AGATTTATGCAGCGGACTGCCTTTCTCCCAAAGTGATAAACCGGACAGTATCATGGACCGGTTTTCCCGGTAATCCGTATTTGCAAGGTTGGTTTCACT; site = the 11-nt target
Label scheme for recombinant barcode read abundance (log10): small value = under 0.1, mid value = from 0.1 up to 0.3, large value = 0.3 and over

Category lookup for the sequence TCGGAGTCTTGGGTTCTAACCTGTTGCGT (site TCGGAGTCTAC)
large value

Could you tell me which band TAGACCACTTGGGTTCTAACCTGTTGCAC (site TAGACCACTGT) belongs to?
large value

Where would TGCTGATCTTGGGTTCTAACCTGTTGCCT (site AGCTGATCTAG) land among the classes by reported recombinant barcode read abundance (log10)?
mid value

Kindly identify the class of TGGTGTCCTTGGGTTCTAACCTGTTGCCT (site TGGGGTCCTAG) .
mid value

Lab note: which band did CGGCTGTCTTGGGTTCTAACCTGTTGCCT (site GTAGGAACTCA) land in?
small value

# bin lookup: classify GCACCAACTTGGGTTCTAACCTGTTGCCT (site CCACCGACTAG) by its recombinant barcode read abundance (log10)
mid value

Class for TCTTTACCTTGGGTTCTAACCTGTTGCCT (site CCTTTACCTAG) ?
mid value

Category of CTTGGTTCTTGGGTTCTAACCTGTTGCCT (site CTTGGGTCTAG) :
mid value

Class for TAGTGCTCTTGGGTTCTAACCTGTTGCCT (site TAGTGCTCTCG) ?
large value

State the class of the sequence shown: ATGATATCTTGGGTTCTAACCTGTTGCCT (site AGGATATCTAG)
mid value

The entry to classify is TCTAAGGCTTGGGTTCTAACCTGTTGCCT (site TCCAAGGCTAG) ; which class holds it?
mid value

Place this sequence in its band: ATGTAGTCTTGGGTTCTAACCTGTTGCCT (site TTGTCGTCTAG)
mid value

Consider CCAGGTCCTTGGGTTCTAACCTGTTGCAT (site CCAGGTCCTAC) . To which recombinant barcode read abundance (log10) class does it belong?
mid value

# bin lookup: classify GGAAAAGCTTGGGTTCTAACCTGTTGCTT (site TCTTCGACTCT) by its recombinant barcode read abundance (log10)
mid value

Hello team, could you let me know which band the following sequence falls into: TAAAAGTCTTGGGTTCTAACCTGTTGCCT (site TAAAAGTCTAG)
large value

Band for the recorded recombinant barcode read abundance (log10) of TGTCGGCCTTGGGTTCTAACCTGTTGCTT (site TGTCGGCCTAA) ?
small value

Exam item: assign CTATCCTCTTGGGTTCTAACCTGTTGCAT (site CTATCCTCTAT) to the correct category.
large value

Sort AGGGGATCTTGGGTTCTAACCTGTTGCCT (site AGGGGATCTAG) into one of the categories.
large value

Band of TAGCCATCTTGGGTTCTAACCTGTTGCTC (site TAGCCATCTGA) ?
large value

Which recombinant barcode read abundance (log10) band matches AGCGGACCTTGGGTTCTAACCTGTTGCCT (site AGCGGTCCTAG) ?
small value

In plain terms, what class is TTCTGTCCTTGGGTTCTAACCTGTTGCCT (site TTCTTTCCTAG) ?
small value

Sort into band: CAGAATACTTGGGTTCTAACCTGTTGCGT (site CAGAATACTAC)
large value

Which bin should I file CAAGATTCTTGGGTTCTAACCTGTTGCCT (site CTAGATTCTAG) under?
large value

Could you place TCGCTAACTTGGGTTCTAACCTGTTGCCT (site TCGCTAACTAG) in its proper category? Many thanks.
large value

Band of CTTCGAGCTTGGGTTCTAACCTGTTGCAG (site CTTCGAGCTCA) ?
mid value

Class? Entry: AGTAAGCCTTGGGTTCTAACCTGTTGCCT (site AGTGAGCCTAG)
mid value

Any idea which band TTGTCTCCTTGGGTTCTAACCTGTTGCCT (site GTGTCTCCTAG) is in?
mid value

Hello team, could you let me know which band the following sequence falls into: CCTAAGACTTGGGTTCTAACCTGTTGCCA (site CCTAAGACTGG)
small value

Kindly identify the class of CGACCCTCTTGGGTTCTAACCTGTTGCCT (site GGACCCTCTAG) .
mid value

Sort into band: AGCGGACCTTGGGTTCTAACCTGTTGCCT (site AGCGGGCCTAG)
mid value

Assign a bin to GTATCCTCTTGGGTTCTAACCTGTTGCAT (site GTATCCTCTAT)
large value

Sort GGTGGGTCTTGGGTTCTAACCTGTTGCTT (site GGTGGGTCTAA) into one of the categories.
large value

Category of TGATCTACTTGGGTTCTAACCTGTTGCTT (site TGGTCTACTAA) , please.
small value

Hello team, could you let me know which band the following sequence falls into: GGCTCTTCTTGGGTTCTAACCTGTTGCCT (site GGCTCTTCTAG)
large value

Which recombinant barcode read abundance (log10) category applies to GAGCTACCTTGGGTTCTAACCTGTTGCCG (site GAGCTACCTAG) here?
large value

Into which bin does this sequence go? ATACTAACTTGGGTTCTAACCTGTTGCCT (site AAACTAACTAG)
small value

Where would AGCCACACTTGGGTTCTAACCTGTTGCGT (site TGCCAGACTAC) land among the classes by reported recombinant barcode read abundance (log10)?
mid value

Class for CTAATAGCTTGGGTTCTAACCTGTTGCTA (site CTAATAGCTTA) ?
mid value

Which class does GCAGGGTCTTGGGTTCTAACCTGTTGCCT (site GCAGGGTCTAG) fall in?
large value
